Quick reference: DC50 of the listed items.
Measured on: BRAF G466V (Homo sapiens, UniProt P15056, G466V)
Construct: expressed in transfected cells
Sequence (P15056 whole entry G466V): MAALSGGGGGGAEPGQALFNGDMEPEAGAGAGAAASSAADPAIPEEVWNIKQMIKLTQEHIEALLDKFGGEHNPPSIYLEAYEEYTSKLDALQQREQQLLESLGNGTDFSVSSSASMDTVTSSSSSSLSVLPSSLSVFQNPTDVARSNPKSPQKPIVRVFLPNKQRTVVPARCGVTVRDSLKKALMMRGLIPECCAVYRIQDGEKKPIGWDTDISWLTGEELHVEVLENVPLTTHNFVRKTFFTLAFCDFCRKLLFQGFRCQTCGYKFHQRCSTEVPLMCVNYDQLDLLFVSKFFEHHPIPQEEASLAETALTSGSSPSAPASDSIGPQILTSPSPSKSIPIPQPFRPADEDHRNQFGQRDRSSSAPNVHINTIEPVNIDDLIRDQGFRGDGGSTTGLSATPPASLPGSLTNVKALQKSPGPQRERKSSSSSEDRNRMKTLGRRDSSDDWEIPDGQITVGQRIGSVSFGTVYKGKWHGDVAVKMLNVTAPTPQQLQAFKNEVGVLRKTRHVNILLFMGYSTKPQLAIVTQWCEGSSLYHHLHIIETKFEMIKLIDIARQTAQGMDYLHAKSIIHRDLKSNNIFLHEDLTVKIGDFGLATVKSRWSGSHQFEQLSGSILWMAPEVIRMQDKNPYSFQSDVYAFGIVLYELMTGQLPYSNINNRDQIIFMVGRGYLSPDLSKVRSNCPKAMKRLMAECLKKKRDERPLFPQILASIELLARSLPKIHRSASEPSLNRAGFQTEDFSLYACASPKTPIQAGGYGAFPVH
Assay: Cellular assay of target protein degradation, T-Rex 293 cells stably transfected with HA-BRAF G466V (HA immunofluorescence, high content imaging)
Type: cell-based
Test conditions: half maximal degradation, T-Rex 293 HA-BRAF G466V; read-out: BRaf G466V DC50

# count of solved cases: 4
| Compound | Measured on | DC50 |
| --- | --- | --- |
| N#Cc1cc(-c2cnc3[nH]cc(C(=O)c4c(F)ccc(NS(=O)(=O)N5CC[C@@H](F)C5)c4F)c3c2)ccc1N1CCC(CN2CCC(c3ccc4c(c3)CN(C3CCC(=O)NC3=O)C4=O)CC2)CC1 (some centres unmarked) | BRAF G466V (Homo sapiens, UniProt P15056, G466V) | < 1 nM |
| CCCS(=O)(=O)Nc1ccc(F)c(C(=O)c2c[nH]c3ncc(-c4ccc(N5CCC(CN6CC7(C6)CN(c6ccc8c(c6)CN([C@H]6CCC(=O)NC6=O)C8=O)C7)CC5)cc4)cc23)c1F | BRAF G466V (Homo sapiens, UniProt P15056, G466V) | < 1 nM |
| O=C1CC[C@H](N2Cc3cc([C@@H](O)CCN4CC5(C4)CN(c4ccc(-c6cnc7[nH]cc(C(=O)c8c(F)ccc(NS(=O)(=O)N9CC[C@@H](F)C9)c8F)c7c6)cc4)C5)ccc3C2=O)C(=O)N1 | BRAF G466V (Homo sapiens, UniProt P15056, G466V) | 1 to 10 nM |
| O=C1CCC(N2Cc3cc(N4CCC(CN5CCC(C6(c7ccc(-c8cnc9[nH]cc(C(=O)c%10c(F)ccc(NS(=O)(=O)N%11CC[C@@H](F)C%11)c%10F)c9c8)cc7)CC6)CC5)CC4)ccc3C2=O)C(=O)N1 (some centres unmarked) | BRAF G466V (Homo sapiens, UniProt P15056, G466V) | 1 to 10 nM |

Moving on to the next compound.
Task: Can you share its DC50? I mean this compound: CCc1ccc(NS(=O)(=O)N2CC[C@@H](F)C2)c(F)c1C(=O)c1c[nH]c2ncc(-c3ccc(N4CCC(CN5CCC(c6ccc7c(c6)CN(C6CCC(=O)NC6=O)C7=O)CC5)CC4)cc3)cc12 (some centres unmarked)
Result: > 30 nM

* * *

Measured on: BRAF V600E (Homo sapiens, UniProt P15056, V600E)
Construct: expressed in transfected cells
Sequence (P15056 whole entry V600E): as the sequence (P15056 whole entry G466V) above, with V466G, V600E counted along it
Assay: Cellular assay of target protein degradation, T-Rex 293 cells stably transfected with HA-BRAF_V600E (HA immunofluorescence, high content imaging)
Type: cell-based
Test conditions: half maximal degradation, T-Rex 293 HA-BRAF V600E; read-out: BRaf V600E DC50
Readout: DC50

Task: Can you share its DC50? I mean this compound: O=C1CCC(N2Cc3cc(N4CCN(CC5CN(c6ccc(-c7cnc8[nH]cc(C(=O)c9c(F)ccc(NS(=O)(=O)N%10CC[C@@H](F)C%10)c9F)c8c7)cn6)C5)CC4)ccc3C2=O)C(=O)N1 (stereo partly drawn)
Result: 5 to 50 nM

Task: Can you share its DC50? I mean this compound: O=C1CCC(N2Cc3cc(N4CC5(CN(CCOc6ccc(-c7cnc8[nH]cc(C(=O)c9c(F)ccc(NS(=O)(=O)N%10CC[C@@H](F)C%10)c9F)c8c7)cc6F)C5)C4)ccc3C2=O)C(=O)N1 (stereo partly drawn)
Result: 5 to 50 nM

Task: Can you share its DC50? I mean this compound: O=C1CCC(N2Cc3cc(N4CC(CN5CCC(C6(c7ccc(-c8cnc9[nH]cc(C(=O)c%10c(F)ccc(NS(=O)(=O)N%11CC[C@@H](F)C%11)c%10F)c9c8)cc7)CC6)CC5)C4)ccc3C2=O)C(=O)N1 (stereo partly drawn)
Result: 50 to 500 nM
